Source of measurements: patent US20250154141A1

# Tested on: RS4; 11
# Test: Cell viability assay (MTS) in RS4; 11 cells
# Type: cell-based
# Applied Conditions: Homo sapiens, RS4-11; Table 2; 48 hr; MTS; read-out: Anti-Cancer Activity IC50 (48 hr) RS4; 11
Readout Kind: IC50

[[record]]
compound = "Cc1ncsc1-c1ccc([C@H](C)NC(=O)[C@@H]2C[C@@H](O)CN2C(=O)[C@@H](NC(=O)CCCNC(=O)c2ccc(N3CCN(CCN(C)CC4(C)CCC(c5ccc(Cl)cc5)=C(CN5CCN(c6ccc(C(=O)NS(=O)(=O)c7ccc(N[C@H](CCN8CCOCC8)CSc8ccccc8)c(S(=O)(=O)C(F)(F)F)c7)cc6)CC5)C4)CC3)nc2)C(C)(C)C)cc1 (stereo partly drawn)"
readout_kind = "IC50"
recorded_measurement = "20 to 100 nM"

[[record]]
compound = "Cc1ncsc1-c1ccc([C@H](C)NC(=O)[C@@H]2C[C@@H](O)CN2C(=O)[C@@H](NC(=O)CCCCCNC(=O)c2ccc(N3CCN(CC4(C)CCC(c5ccc(Cl)cc5)=C(CN5CCN(c6ccc(C(=O)NS(=O)(=O)c7ccc(N[C@H](CCN8CCOCC8)CSc8ccccc8)c(S(=O)(=O)C(F)(F)F)c7)cc6)CC5)C4)CC3)cn2)C(C)(C)C)cc1 (stereo partly drawn)"
readout_kind = "IC50"
recorded_measurement = "100 to 500 nM"

[[record]]
compound = "COCC[C@H](CSc1ccccc1)Nc1ccc(S(=O)(=O)NC(=O)c2ccc(N3CCN(CC4=C(c5ccc(Cl)cc5)CCC(C)(CN5CCN(C(=O)CCCCCCC(=O)N[C@H](C(=O)N6C[C@H](O)C[C@H]6C(=O)N[C@@H](C)c6ccc(-c7scnc7C)cc6)C(C)(C)C)CC5)C4)CC3)cc2)cc1[N+](=O)[O-] (stereo partly drawn)"
readout_kind = "IC50"
recorded_measurement = "20 to 100 nM"

